tested on: ABL1(Y253F)-phosphorylated; details: Compound Concentration (nM):1000;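 also: KINOMEscan scanMAX binding as percent activity remaining versus control; lower means stronger binding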
Assign Percent Control to each entry below.
One number for each entry, in %.

{"columns": ["compound", "measurement_name", "obs_value"],
 "data": [
  ["COc1cc(N2CCN(C(C)C)CC2)ccc1Nc1nc(Nc2ccc(F)cc2C(=O)NC[C@@H](O)CO)c2cc[nH]c2n1 [GSK1392956A]", "Percent Control", 100],
  ["COc1cc2ncn(-c3cc(O[C@H](C)c4ccccc4Cl)c(C(N)=O)s3)c2cc1OC [GSK237701A]", "Percent Control", 83],
  ["CCS(=O)(=O)c1ccc(OC)c(Nc2ncc(-c3cccc(F)c3)o2)c1 [GW621970X]", "Percent Control", 7.1]
]}

Please look at the following compound next.
Sample COc1cc(C=NNc2ncnc3c2cnn3-c2ccccc2)ccc1O [GW513184X] — what was its Percent Control?
26
